tested on: guinea pig left auricles; assay: Isolated left auricles stimulated with 1 Hz, inotropic effect; details: Cavia porcellus, 20.0 μg/ml, read-out: Maximum effect in % of initial value, LEFT AURICLE INTROPIC
So I've got a bunch of compounds here, and I need their Emax at 20 µg/mL values.
Answers are plain numbers, in %.

Recorded results for 5 compounds are shown here.
CN1CC[C@@H]2CC(=O)c3[nH]c4ccccc4c3C[C@@H]2C1 (relative stereo) ... 23
CC(C)c1ccc2[nH]c3c(c2c1)C[C@@H]1CN(C)CC[C@@H]1CC3=O (relative stereo) ... -33.3
CC(=O)c1[nH]c2ccccc2c1CC1CN(C)CCC1=O (centres unmarked) ... 31
CN1CC=C2CC(=O)c3[nH]c4ccccc4c3CC2C1 (centres unmarked) ... 50
COc1cc2[nH]c3c(c2c(OC)c1OC)C[C@@H]1CN(C)CC[C@@H]1CC3=O (relative stereo) ... 31.8

State the recorded Emax at 20 µg/mL for every item in the following list.
1. COc1ccc2[nH]c3c(c2c1)C[C@@H]1CN(C)CC[C@@H]1CC3=O (relative stereo)
2. CN1CCC2=C(Cc3c([nH]c4ccccc34)C(=O)C2)C1 [SI-WG 334a]

## Result
1: 20; 2: 33

## Task Find the recorded Emax at 20 µg/mL belonging to CC(=O)Nc1ccc2[nH]c3c(c2c1)C[C@@H]1CN(C)CC[C@@H]1CC3=O (relative stereo) and report it.
## Result 8.2
